system: HBC-4; experiment: 39-cancer cell panel assay: HBC-4; type: cell-based; conditions: Homo sapiens, HBC4, Br
VALUE KIND: GI50
Please answer using a numeric value trailed by its unit.

Example entries and their recorded answers appear below.
COMPOUND | VALUE KIND | OBSERVED VALUE
CC(C)=CCC/C(C)=C/CC/C(C)=C/Cc1c(O)c(Cl)c(C)c(C=O)c1O | GI50 | 2.2 µM
COC(=O)/C(C)=C/CC/C(C)=C/Cc1c(O)c(Cl)c(C)c(C=O)c1O | GI50 | 5.6 µM
C/C(=C\COC(=O)C(C)C)CC/C(C)=C/Cc1c(O)c(Cl)c(C)c(C=O)c1O | GI50 | 9.4 µM
C/C(=C\Cc1c(O)c(Cl)c(C)c(C=O)c1O)CC/C=C(\C)[C@@H]1CC(=O)C(C)(C)O1 | GI50 | 9.1 µM

Parameters: items (list). Returns: GI50 for each item.
1. C/C(=C\Cc1c(O)c(Cl)c(C)c(C=O)c1O)CC/C=C(\C)C(C)O (stereo not drawn)
2. CC(=O)OC(C)/C(C)=C/CC/C(C)=C/Cc1c(O)c(Cl)c(C)c(C=O)c1O (stereo not drawn)

-- reply
["37 µM", "5 µM"]

---

test system: DLD-1 cells; test: Cytotoxicity assay (Cell Counting Kit-8 / WST-8) on DLD-1 cells; format: cell-based, human; settings: Homo sapiens; DLD-1, 48 h, hypoxia (1% oxygen), nutrient (-); read-out: IC50 (μM) DLD-1 (48 h) Hypoxia nutrient (-)
VALUE KIND: IC50 (µM)
Answers are plain numbers, in µM.

Example entries and their recorded answers appear below.
COMPOUND | ASSAY SYSTEM | IC50, µM
COC(=O)/C(C)=C/CC/C(C)=C/Cc1c(O)c(Cl)c(C)c(C=O)c1O | DLD-1 cells | 0.67
CC(C)=CCC/C(C)=C/CC/C(C)=C/Cc1c(O)c(Cl)c(C)c(C=O)c1O | DLD-1 cells | 0.024

Parameters: items (list). Returns: IC50 for each item.
1. CC(=O)OC(C)/C(C)=C/CC/C(C)=C/Cc1c(O)c(Cl)c(C)c(C=O)c1O (stereo not shown)
2. C/C(=C\Cc1c(O)c(Cl)c(C)c(C=O)c1O)CC/C=C(\C)[C@@H]1CC(=O)C(C)(C)O1

-- reply
[0.95, 0.24]

---

test system: ACHN; experiment: 39-cancer cell panel assay: ACHN; assay type: cell-based; details: Homo sapiens, Re
Lab note - cut at 10 µM for GI50: 1 if strictly below, -1 if not.

// known answers, use as guide
COMPOUND | CLASS LABEL
CC(C)=CCC/C(C)=C/CC/C(C)=C/Cc1c(O)c(Cl)c(C)c(C=O)c1O | 1
C/C(=C\COC(=O)C(C)C)CC/C(C)=C/Cc1c(O)c(Cl)c(C)c(C=O)c1O | -1

Switching to the query record.
-- ask Bench note: check whether C/C(=C\Cc1c(O)c(Cl)c(C)c(C=O)c1O)CC/C=C(\C)C(C)O (stereo not drawn) shows GI50 below 10 µM
-- reply -1

---

system: St-4; experiment: 39-cancer cell panel assay: St-4; format: cell-based; conditions: Homo sapiens
Provide the recorded GI50 for the entries that follow.
Numbers only, in µM.

Example entries and their recorded answers appear below.
MOLECULE | ASSAY SYSTEM | GI50 [µM]
CC(=O)OC(C)/C(C)=C/CC/C(C)=C/Cc1c(O)c(Cl)c(C)c(C=O)c1O (stereo not drawn) | St-4 | 13
COC(=O)/C(C)=C/CC/C(C)=C/Cc1c(O)c(Cl)c(C)c(C=O)c1O | St-4 | 7.5
C/C(=C\Cc1c(O)c(Cl)c(C)c(C=O)c1O)CC/C=C(\C)C(C)O (stereo not drawn) | St-4 | 44
CC(C)=CCC/C(C)=C/CC/C(C)=C/Cc1c(O)c(Cl)c(C)c(C=O)c1O | St-4 | 1.1
C/C(=C\COC(=O)C(C)C)CC/C(C)=C/Cc1c(O)c(Cl)c(C)c(C=O)c1O | St-4 | 17

Consider the record given below.
-- ask Returns the measured GI50 for the input molecule. Input: `C/C(=C\Cc1c(O)c(Cl)c(C)c(C=O)c1O)CC/C=C(\C)[C@@H]1CC(=O)C(C)(C)O1`
-- reply 14

---

test system: HBC-5; experiment: 39-cancer cell panel assay: HBC-5; assay type: cell-based; conditions: Homo sapiens, HBC5, Br
Provide the recorded GI50 for the entries that follow.
Answers are plain numbers, in µM.

Example entries and their recorded answers appear below.
MOLECULE | GI50 / µM
C/C(=C\Cc1c(O)c(Cl)c(C)c(C=O)c1O)CC/C=C(\C)[C@@H]1CC(=O)C(C)(C)O1 | 28
COC(=O)/C(C)=C/CC/C(C)=C/Cc1c(O)c(Cl)c(C)c(C=O)c1O | 28
C/C(=C\Cc1c(O)c(Cl)c(C)c(C=O)c1O)CC/C=C(\C)C(C)O (stereo not drawn) | 61

Parameters: items (list). Returns: GI50 for each item.
1. C/C(=C\COC(=O)C(C)C)CC/C(C)=C/Cc1c(O)c(Cl)c(C)c(C=O)c1O
2. CC(=O)OC(C)/C(C)=C/CC/C(C)=C/Cc1c(O)c(Cl)c(C)c(C=O)c1O (stereo not drawn)
3. CC(C)=CCC/C(C)=C/CC/C(C)=C/Cc1c(O)c(Cl)c(C)c(C=O)c1O

-- reply
1: 18; 2: 25; 3: 16

---

target: human dihydroorotate dehydrogenase (HsDHODH) (Homo sapiens); construct: made in house; assay: Inhibition of recombinant human DHODH enzyme activity; format: biochemical; conditions: IC50 (μM) HsDHODH, recombinant human DHODH, Table 6
Sequence (Q02127 whole entry): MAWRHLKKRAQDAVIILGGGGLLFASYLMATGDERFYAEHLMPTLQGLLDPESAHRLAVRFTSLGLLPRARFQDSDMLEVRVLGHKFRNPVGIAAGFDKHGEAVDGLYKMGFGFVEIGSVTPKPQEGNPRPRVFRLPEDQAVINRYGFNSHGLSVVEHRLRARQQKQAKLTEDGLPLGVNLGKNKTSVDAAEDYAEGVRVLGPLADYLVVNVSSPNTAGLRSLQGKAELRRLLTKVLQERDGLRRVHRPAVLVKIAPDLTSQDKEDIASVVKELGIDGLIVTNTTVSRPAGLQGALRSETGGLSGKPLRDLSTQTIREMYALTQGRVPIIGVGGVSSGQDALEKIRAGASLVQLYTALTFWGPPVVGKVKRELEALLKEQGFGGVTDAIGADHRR
VALUE KIND: IC50

Parameters: items (list). Returns: IC50 for each item.
1. C=C(C)[C@H]1Cc2c(ccc3c2O[C@@H]2COc4cc(OC)c(OC)cc4[C@@H]2C3=O)O1 [Rotenone, reference compound]
2. COc1[nH]c(=O)c(C(=O)[C@@H](C)C[C@H](C)[C@@H](Cl)CCl)c(O)c1OC [Atpenin A5, reference compound]

-- reply
["> 10 µM", "> 10 µM"]

---

target: Complex II (Bos taurus, UniProt P35720+Q3T189+Q95123); construct: from tissue; host or cells: bovine mitochondrial fraction / sub-mitochondrial particles; assay: Succinate:quinone reductase (complex II) activity, bovine mitochondria; type: biochemical
Sequence (P31039 45-665 partner limits assumed): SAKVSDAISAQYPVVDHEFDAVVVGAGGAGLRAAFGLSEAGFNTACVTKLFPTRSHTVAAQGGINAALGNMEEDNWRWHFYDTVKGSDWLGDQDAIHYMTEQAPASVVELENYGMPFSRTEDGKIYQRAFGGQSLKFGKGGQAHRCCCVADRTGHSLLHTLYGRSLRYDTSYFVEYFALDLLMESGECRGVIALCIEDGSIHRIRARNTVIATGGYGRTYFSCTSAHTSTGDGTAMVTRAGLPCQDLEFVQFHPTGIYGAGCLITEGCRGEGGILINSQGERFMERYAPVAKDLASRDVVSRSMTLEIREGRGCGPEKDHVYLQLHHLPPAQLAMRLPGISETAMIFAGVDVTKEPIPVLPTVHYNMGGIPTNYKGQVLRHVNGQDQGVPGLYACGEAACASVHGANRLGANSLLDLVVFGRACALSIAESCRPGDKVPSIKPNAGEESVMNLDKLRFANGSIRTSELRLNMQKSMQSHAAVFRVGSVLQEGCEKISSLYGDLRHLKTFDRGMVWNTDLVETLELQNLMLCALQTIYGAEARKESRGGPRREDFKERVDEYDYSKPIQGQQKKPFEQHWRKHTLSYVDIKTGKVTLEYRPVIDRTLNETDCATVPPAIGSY
Sequence (Q3T189 29-280): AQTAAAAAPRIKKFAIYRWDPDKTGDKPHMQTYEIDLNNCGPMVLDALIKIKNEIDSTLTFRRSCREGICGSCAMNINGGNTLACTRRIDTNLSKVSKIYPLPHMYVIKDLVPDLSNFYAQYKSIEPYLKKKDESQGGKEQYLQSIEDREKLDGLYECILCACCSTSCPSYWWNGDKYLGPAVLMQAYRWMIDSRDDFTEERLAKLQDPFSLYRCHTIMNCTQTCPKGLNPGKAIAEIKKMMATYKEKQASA
Sequence (P35720 30-169): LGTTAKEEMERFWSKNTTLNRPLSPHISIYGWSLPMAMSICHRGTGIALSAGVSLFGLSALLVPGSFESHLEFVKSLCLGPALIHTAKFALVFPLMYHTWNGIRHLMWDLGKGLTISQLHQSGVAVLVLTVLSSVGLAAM
Sequence (Q95123 56-158): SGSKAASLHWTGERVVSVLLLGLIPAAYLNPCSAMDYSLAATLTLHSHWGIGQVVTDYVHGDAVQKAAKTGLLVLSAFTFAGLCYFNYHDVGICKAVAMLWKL
Mark 0.0 for inhibition at 5 µM values under 6%, and 1.0 for everything at or above.

// known answers, use as guide
COMPOUND | ASSAY SYSTEM | CLASS LABEL
C=C(C)[C@H]1Cc2c(ccc3c2O[C@@H]2COc4cc(OC)c(OC)cc4[C@@H]2C3=O)O1 [Rotenone, reference compound] | Complex II (Bos taurus, UniProt P35720+Q3T189+Q95123) | 1.0
CC(=O)OC(C)/C(C)=C/CC/C(C)=C/Cc1c(O)c(Cl)c(C)c(C=O)c1O (stereo not shown) | Complex II (Bos taurus, UniProt P35720+Q3T189+Q95123) | 0.0
CC(/C=C/[C@@]1(C)[C@H](C)CCC(=O)[C@@H]1C)=C\Cc1c(O)c(Cl)c(C)c(C=O)c1O | Complex II (Bos taurus, UniProt P35720+Q3T189+Q95123) | 0.0
C/C(=C\Cc1c(O)c(Cl)c(C)c(C=O)c1O)CC/C=C(\C)[C@@H]1CC(=O)C(C)(C)O1 | Complex II (Bos taurus, UniProt P35720+Q3T189+Q95123) | 0.0
CC(C)=CCC/C(C)=C/CC/C(C)=C/Cc1c(O)c(Cl)c(C)c(C=O)c1O | Complex II (Bos taurus, UniProt P35720+Q3T189+Q95123) | 1.0
COc1[nH]c(=O)c(C(=O)[C@@H](C)C[C@H](C)[C@@H](Cl)CCl)c(O)c1OC [Atpenin A5, reference compound] | Complex II (Bos taurus, UniProt P35720+Q3T189+Q95123) | 1.0

Switching to the query record.
-- ask Confirm if inhibition at 5 µM reported for the compound `COC(=O)/C(C)=C/CC/C(C)=C/Cc1c(O)c(Cl)c(C)c(C=O)c1O` is 6% or above.
-- reply 0.0

---

tested on: DU-145; test: 39-cancer cell panel assay: DU-145; format: cell-based; settings: Homo sapiens, Pro
Provide the recorded GI50 for the entries that follow.
Numbers only, in µM.

Example entries and their recorded answers appear below.
MOLECULE | ASSAY SYSTEM | GI50, µM
C/C(=C\Cc1c(O)c(Cl)c(C)c(C=O)c1O)CC/C=C(\C)[C@@H]1CC(=O)C(C)(C)O1 [Compound 1, ascofuranone] | DU-145 | 11
COC(=O)/C(C)=C/CC/C(C)=C/Cc1c(O)c(Cl)c(C)c(C=O)c1O [Compound 9] | DU-145 | 10
CC(C)=CCC/C(C)=C/CC/C(C)=C/Cc1c(O)c(Cl)c(C)c(C=O)c1O [Compound 8] | DU-145 | 0.26
CC(=O)OC(C)/C(C)=C/CC/C(C)=C/Cc1c(O)c(Cl)c(C)c(C=O)c1O (stereo not drawn) [Compound 7] | DU-145 | 14
C/C(=C\Cc1c(O)c(Cl)c(C)c(C=O)c1O)CC/C=C(\C)C(C)O (stereo not drawn) [Compound 6] | DU-145 | 25

Consider the record given below.
-- ask Returns the measured GI50 for the input molecule. Input: C/C(=C\COC(=O)C(C)C)CC/C(C)=C/Cc1c(O)c(Cl)c(C)c(C=O)c1O [Compound 12]
-- reply 23
